# System: Staphylococcus aureus
# protocol_description: Antibacterial activity against Staphylococcus aureus RN4220 with rplC S158L mutation
# Format: functional
quantity_name: MIC (µg/mL)
Give the number; µg/mL is assumed, so skip it.

Example compounds with recorded MIC:
> print(dat)
                                chem.smiles  quantity.name  unit.abbreviation  quantitative.result
1  C=C[C@]1(C)C[C@@H](OC(=O)CS[C@@H]2C[C@H]3CC[C@@H](C2)N3C)[C@]2(C)[C@H](C)CC[C@]3(CCC(=O)[C@H]32)[C@@H](C)[C@@H]1O            MIC              µg/mL                 0.25
2  O=C(N[C@H](CO)[C@H](O)c1ccc([N+](=O)[O-])cc1)C(Cl)Cl            MIC              µg/mL                    4
3  C[C@H]1COc2c(N3CCN(C)CC3)c(F)cc3c(=O)c(C(=O)O)cn1c23.C[C@H]1COc2c(N3CCN(C)CC3)c(F)cc3c(=O)c(C(=O)O)cn1c23.O            MIC              µg/mL                  0.5
4  CN(C)[C@@H]1C(O)=C(C(N)=O)C(=O)[C@@]2(O)C(O)=C3C(=O)c4c(O)cccc4[C@@](C)(O)[C@H]3C[C@@H]12            MIC              µg/mL                 0.25
5  C/C(=C\C(=O)OCCCCCCCCC(=O)O)C[C@@H]1OC[C@H](C[C@@H]2O[C@H]2[C@@H](C)[C@H](C)O)[C@@H](O)[C@H]1O            MIC              µg/mL                 0.06

# evaluate next
For Staphylococcus aureus, provide MIC of C=C[C@]1(C)C[C@@H](OC(=O)CSCCN(CC)CC)[C@]2(C)[C@H](C)CC[C@]3(CCC(=O)[C@H]32)[C@@H](C)[C@@H]1O please.
2
